The reported measurements were obtained from patent EP4755888A1.

In this section, each of the compounds is paired with its reported EC50.
system: PD-1/PD-L1; test: PD-1/PD-L1 blockade bioassay at the cellular level (PD-L1 aAPC/CHO-K1 cells + PD-1 Effector T cells, luciferase); assay type: cell-based; conditions: Homo sapiens, T-cell; PD-L1 aAPC/CHO-K1 cells with PD-1 Effector T cells, 6 hours, luminescence; read-out: PD-1/PD-L1 Inhibitory Activity EC50
Provide the reading as a plain figure in nM.

{"columns": ["Mol Smiles", "Recorded Measurement"],
 "data": [
  ["O=C(O)CN[C@H]1CCCn2nc(C(=O)Nc3cccc(-c4cccc(Nc5nccc6cc(CN7CC[C@@H](O)C7)cnc56)c4Cl)c3Cl)cc21", 19.2],
  ["Cc1c(NC(=O)c2cc3n(n2)CCC[C@@H]3N2CC[C@@H](C(=O)O)C2)cccc1-c1cccc(Nc2nc(C(F)F)nc3cc(CN4CC[C@@H](O)C4)cnc23)c1C", 16],
  ["Cc1c(NC(=O)c2cc3n(n2)CCC[C@@H]3NCC(=O)O)cccc1-c1cccc(Nc2nc(C(F)F)nc3cc(CN4CC[C@@H](O)C4)cnc23)c1C", 32.3],
  ["Cc1c(NC(=O)c2ccc(CN3CC[C@@H](O)C3)cn2)cccc1-c1cccc(NC(=O)c2cc3n(n2)CCC[C@@H]3NCCO)c1C", 40.1]
]}

(Q) Bench note: what EC50 did O=C(Nc1cccc(-c2cccc(NC(=O)c3cc4n(n3)CCC[C@H]4NCCO)c2Cl)c1Cl)c1ccc(CNCCO)cn1 show?
(A) 85.8
